Value source: PubChem BioAssay AID2069

- Test description: HTRF signal interference by compounds, confirmation, artefact control for SUMOylation inhibitor project, biochemical, uHTS (AID 2069)
- Test settings: HTRF interference counterscreen, fluorescence, at 35 µM, active compounds read high
Out of some 1,200 compounds screened, about 210 (18%) were called active. The list is a sample of the results.
Assay readout: inhibition

- Compound: "O=[N+]([O-])c1cc(Cl)cc(/C=N/NC(=S)Nc2ccc(S(=O)(=O)N3CCOCC3)cc2)c1O"
  Reported: "80.5% (active)"
- Compound: "Cc1[nH][nH]c(=O)c1C(c1ccc(-c2ccc(C(=O)O)cc2)o1)c1c(C)[nH][nH]c1=O"
  Reported: "0.5% (inactive)"
- Compound: "COc1cc(/C=C2\\C(=O)N(c3ccccc3)N=C2C)ccc1Oc1ccc([N+](=O)[O-])cc1[N+](=O)[O-]"
  Reported: "1.25% (inactive)"
- Compound: "COc1ccc(-n2c(CNc3ccc(C)cc3)nnc2SCC(=O)Nc2nc(-c3ccccc3)cs2)cc1"
  Reported: "-1.4% (inactive)"
- Compound: "Cc1ccc(C(=O)NC(C)c2nc3ccccc3n2CC(=O)Nc2c(C)cc(C)cc2C)cc1 (stereo unspecified)"
  Reported: "25.5% (inactive)"
- Compound: "COCCNC(=O)Nc1ccc2nc(-c3ccco3)c(-c3ccco3)nc2c1"
  Reported: "52.4% (active)"
- Compound: "O=C(O)c1ccc(N2N=C(c3ccccc3)CC2c2ccccc2)cc1 (stereo unspecified)"
  Reported: "60.1% (active)"
- Compound: "CCc1ccc(NC(=O)C(CC)Sc2nc3cc4c(cc3c(=O)n2Cc2ccco2)OCO4)cc1 (stereo unspecified)"
  Reported: "6.65% (inactive)"
- Compound: "COCCn1c(-c2cccs2)csc1=Nc1cccnc1"
  Reported: "3.35% (inactive)"
- Compound: "O=[N+]([O-])c1ccc(O)c(/C=N/NC(=S)Nc2ccc(Cl)cc2Cl)c1"
  Reported: "-23.9% (inactive)"
- Compound: "O=[N+]([O-])c1ccc(N2CCN(CCO)CC2)c2ncccc12"
  Reported: "-19.1% (inactive)"
- Compound: "Cc1cc(-c2csc(N)n2)c(C)n1Cc1ccco1"
  Reported: "-4.05% (inactive)"
- Compound: "Cc1ccc(C2=NN(C(=O)CCC(=O)O)C(c3cn(-c4ccccc4)nc3-c3ccc(C)cc3)C2)cc1 (stereo unspecified)"
  Reported: "23.6% (inactive)"
- Compound: "COc1cccc(Cn2cccc(NC(=O)Nc3ccccc3C)c2=O)c1"
  Reported: "0% (inactive)"
- Compound: "CN(C)/C=C1\\Oc2ccc3ccccc3c2C1=O"
  Reported: "-6.85% (inactive)"
- Compound: "CCN(CC)Cc1c(O)ccc2c(=O)c(Oc3ccccc3OC)coc12"
  Reported: "42.6% (active)"
- Compound: "CNS(=O)(=O)c1ccc2nc(NC(=O)/C=C/c3ccco3)sc2c1"
  Reported: "25.6% (inactive)"
- Compound: "Cc1cc(=O)[nH]c(SCC(=O)c2ccc(O)c(O)c2)n1"
  Reported: "7.45% (inactive)"
- Compound: "CCCCCCC#Cc1cncc(C(=O)NNC(=O)Nc2cc(Cl)cc(Cl)c2)c1"
  Reported: "-17% (inactive)"
- Compound: "CCn1c2ccccc2c2c3ncc4cccn4c3ccc21"
  Reported: "31.1% (active)"
- Compound: "CC(=O)Oc1c(/C=C(\\C#N)C(N)=O)[nH]c2ccccc12"
  Reported: "-17.9% (inactive)"
- Compound: "Cc1oc2c(c(C)cc3oc(=O)c(CC(=O)N[C@H](C(=O)O)C(C)C)c(C)c32)c1C"
  Reported: "56.9% (active)"
- Compound: "Cc1c(NC(=S)N/N=C/c2cc([N+](=O)[O-])ccc2O)c(=O)n(-c2ccccc2)n1C"
  Reported: "11.2% (inactive)"
- Compound: "CC(=O)c1ccc2c(c1)C1C=CCC1C(C(=O)O)N2 (stereo unspecified)"
  Reported: "70.7% (active)"
- Compound: "N#CC1=C(SCC(=O)NC23CC4CC(CC(C4)C2)C3)NC(=O)C(C#N)C12CCCCC2 (stereo unspecified)"
  Reported: "4.6% (inactive)"
- Compound: "CC(=O)OCCNc1cc(SCc2ccco2)c2nonc2c1[N+](=O)[O-]"
  Reported: "-1.55% (inactive)"
- Compound: "CCOc1cc(CNc2ccc(N3CCN(C(C)=O)CC3)cc2)cc(Br)c1OC"
  Reported: "-8.4% (inactive)"
- Compound: "N#Cc1c(N)n(CCNC(=O)c2ccccc2)c2nc3ccccc3nc12"
  Reported: "19.1% (inactive)"
- Compound: "COc1cccc(-c2nc(SCC(=O)Nc3nc(-c4ccccc4)c(C)s3)[nH]c(=O)c2C#N)c1"
  Reported: "-0.65% (inactive)"
- Compound: "CSCC[C@H](NC(=O)Cc1c(C)c2c(cc(C)c3c(C)c(C)oc32)oc1=O)C(=O)O"
  Reported: "48.5% (active)"
- Compound: "CC(=O)C1C(=O)C=C(c2ccco2)CC1c1ccccc1 (stereo unspecified)"
  Reported: "0.4% (inactive)"
- Compound: "O=C(O)COc1ccccc1C(Nc1cccnc1)c1cc(Cl)c2cccnc2c1O (stereo unspecified)"
  Reported: "30.4% (active)"
- Compound: "COc1cc(/C=N/NC(=O)c2cc(-c3ccco3)nc3ccccc23)cc(OC)c1O"
  Reported: "-5.6% (inactive)"
- Compound: "CC1=C(C#N)C(=O)NC(=O)/C1=C\\c1ccc(-c2cc(C)c(C)cc2[N+](=O)[O-])o1"
  Reported: "9.4% (inactive)"
- Compound: "Cc1cc(=O)n2[nH]c(N)c(N=Nc3ccccc3F)c2n1"
  Reported: "-14.7% (inactive)"
- Compound: "CCOC(=O)C1=C(C)NC(=O)CC1c1cc2c(cc1[N+](=O)[O-])OCO2 (stereo unspecified)"
  Reported: "-4.35% (inactive)"
- Compound: "COc1ccc(-n2c(NC(=O)c3ccco3)c(C#N)c3nc4ccccc4nc32)cc1"
  Reported: "4.15% (inactive)"
- Compound: "NC1=NC(c2ccc(Cl)cc2)N(c2ccc(S(N)(=O)=O)cc2)C(N)=N1 (stereo unspecified)"
  Reported: "6.2% (inactive)"
- Compound: "CC(C)(C)c1cc(=O)n(-c2ccccc2)[nH]1"
  Reported: "-0.65% (inactive)"
- Compound: "COc1cc(/C=C2\\C(=O)N(CCC#N)N=C2C)c(Br)cc1OC(C)C"
  Reported: "-5.4% (inactive)"
- Compound: "S=c1[nH]nc(-c2ccc(Cl)cc2)n1/N=C/C=C/c1ccco1"
  Reported: "-4.3% (inactive)"

====

- Test description: HTRF signal interference by compounds, confirmation, artefact control for SUMOylation inhibitor project, biochemical, uHTS (AID 2069)
- Test settings: HTRF interference counterscreen, fluorescence, at 35 µM, active compounds read high
Hit rate of the full screen: of about 1,200 compounds, about 210 (18%) were called active. The list is a sample of the results.

- Compound: "Cc1ccc(C)c(S(=O)(=O)C(C#N)c2nc3ccccc3nc2N2CCCC2)c1 (stereo not given)"
  Output unit: "%"
  inhibition: 1.8
- Compound: "COc1ccc(NC(=O)CN2C(=O)S/C(=C/c3cccn3-c3ccc(C(=O)O)cc3)C2=O)cc1"
  Output unit: "%"
  inhibition: 8
- Compound: "COCC(C)N1C(=O)Cc2c1nc(N)c1c(N)nc(N3CCN(c4ccccc4F)CC3)c(C#N)c21 (stereo not given)"
  Output unit: "%"
  inhibition: 19.1
- Compound: "O=S(=O)(Nc1cc2nc3ccccc3nc2n1Cc1ccccc1)c1ccc(Cl)cc1"
  Output unit: "%"
  inhibition: 24.5
- Compound: "O=C(Nc1ccc(F)cc1)C(=O)c1c(O)[nH]c2ccc([N+](=O)[O-])cc12"
  Output unit: "%"
  inhibition: -2.85
- Compound: "CC(=O)c1ccc2cccc3c2c1N=CN3C"
  Output unit: "%"
  inhibition: -3.4
- Compound: "COc1ccc(CN2C(=O)Cc3c2nc(N)c2c(N)nc(N4CCOCC4)c(C#N)c32)cc1"
  Output unit: "%"
  inhibition: 42.5
- Compound: "COc1ccccc1C(=O)Nc1ccc(-c2nnn(CC(=O)NCc3ccco3)n2)cc1"
  Output unit: "%"
  inhibition: 13.7
- Compound: "C/C(=N\\NC(=O)CNc1cccc2ccccc12)c1ccccc1"
  Output unit: "%"
  inhibition: 18
- Compound: "CCOc1ccc(C2C=C(c3ccccc3)Nc3ncnn32)cc1 (stereo not given)"
  Output unit: "%"
  inhibition: 50.8

====

- Test description: HTRF signal interference by compounds, confirmation, artefact control for SUMOylation inhibitor project, biochemical, uHTS (AID 2069)
- Test settings: HTRF interference counterscreen, fluorescence, at 35 µM, active compounds read high
In all, about 1,200 compounds went through this assay and about 210 (18%) were called active. A selection follows.
Lab note: anything with inhibition at or over 20% counts as fulfilled; the rest go in not fulfilled.

- Compound: "NNC(=O)c1oc2nc(-c3cccs3)cc(-c3ccco3)c2c1N"
  Classification: "not fulfilled"
- Compound: "COc1ccc(CC2=C(O)c3ccccc3C(=O)C2=O)cc1"
  Classification: "not fulfilled"
- Compound: "O=C(NC1(O)C(=O)c2ccccc2C1=O)c1c(Cl)cccc1Cl"
  Classification: "fulfilled"
- Compound: "NNC(=O)c1oc2nc(-c3ccco3)cc(-c3ccco3)c2c1N"
  Classification: "not fulfilled"
- Compound: "Nc1nc(-c2ccco2)c(-c2ccco2)s1"
  Classification: "not fulfilled"
- Compound: "Cc1ccc(C(=O)NC2(O)C(=O)c3ccccc3C2=O)cc1C"
  Classification: "fulfilled"
- Compound: "N#Cc1c(-c2cccs2)nc(SCc2ccc(Cl)cc2)[nH]c1=O"
  Classification: "fulfilled"
- Compound: "NC(=O)c1sc2nc(-c3ccco3)ccc2c1N"
  Classification: "fulfilled"
- Compound: "COc1cccc2c(SCC(=O)N/N=C/c3ccc(O)cc3O)cc(C)nc12"
  Classification: "not fulfilled"
- Compound: "O=C(NC1(O)C(=O)c2ccccc2C1=O)c1ccc(C(F)(F)F)cc1"
  Classification: "fulfilled"
- Compound: "O=C1N/C(=N/N=C/c2ccccc2O)SC1Cc1ccc(F)cc1 (stereo unspecified)"
  Classification: "fulfilled"
